From: patent US20110105397A1

- system: T1, human corticotrophin releasing hormone receptor type 2 (CRHR2) (human, UniProt Q13324 1-411)
- T1 sequence (looked up): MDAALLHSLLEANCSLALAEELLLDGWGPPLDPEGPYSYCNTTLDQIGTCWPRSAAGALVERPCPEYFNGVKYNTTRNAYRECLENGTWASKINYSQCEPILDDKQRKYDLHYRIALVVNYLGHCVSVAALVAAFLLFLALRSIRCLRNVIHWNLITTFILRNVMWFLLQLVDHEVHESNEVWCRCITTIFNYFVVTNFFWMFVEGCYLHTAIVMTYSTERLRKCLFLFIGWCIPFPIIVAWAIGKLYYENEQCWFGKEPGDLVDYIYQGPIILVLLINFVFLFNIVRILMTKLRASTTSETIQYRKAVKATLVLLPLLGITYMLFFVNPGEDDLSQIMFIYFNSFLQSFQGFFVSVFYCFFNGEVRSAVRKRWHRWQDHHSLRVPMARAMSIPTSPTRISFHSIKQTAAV
- experimentNotes: cell-based or functional assay
Where no end group is shown, it is not given here.
pA50 values for the binders below.

Here are 5 binders together with their reported answers.
TKFTLSLDVPTNIMNLLFNIAKAKNLRAQAAANAHLMCQI-NH2 [Cys-variant stresscopin-like peptide SEQ ID NO: 39]	9.21 -log10(M)
TKCTLSLDVPTNIMNLLFNIAKAKNLRAQAAANAHLMAQI-NH2 [Cys-variant stresscopin-like peptide SEQ ID NO: 4]	8.65 -log10(M)
TKFTLCLDVPTNIMNLLFNIAKAKNLRAQAAANAHLMAQI (NES-PEG (about 20 kDa) on Cys 6; C-terminal amide (-NH2)) [Pegylated Cys-variant stresscopin-like peptide with NES linker and PEG about 20 kDa SEQ ID NO: 60]	~6.32 -log10(M)
TKFTLSLDVPTNIMNLLFNIAKAKNLRAQCAANAHLMAQI (NES-PEG (about 20 kDa) on Cys 30; C-terminal amide (-NH2)) [Pegylated Cys-variant stresscopin-like peptide with NES linker and PEG about 20 kDa SEQ ID NO: 84]	~6.82 -log10(M)
TKFCLSLDVPTNIMNLLFNIAKAKNLRAQAAANAHLMAQI-NH2 [Cys-variant stresscopin-like peptide SEQ ID NO: 5]	8.93 -log10(M)

Tell me its pA50 given TKFTLSLDVPTNIMNLLFNIAKAKNLRAQAAANAHLCAQI (NES-PEG (about 20 kDa) on Cys 37; C-terminal amide (-NH2)) [Pegylated Cys-variant stresscopin-like peptide with NES linker and PEG about 20 kDa SEQ ID NO: 91] as the entry.
~6.23 -log10(M)
